# System: 388556-164-R-J1-PDC complex spheroid viability;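 also: spheroids exposed to compound for 7 days before readout; 100% = DMSO vehicle control luminescence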
# PROTOCOL_DETAILS: Anticancer human tumor 388556-164-R-J1-PDC patient-derived colon adenocarcinoma cell line growth inhibition [RAS]
# EXPERIMENTAL_PARAMETERS: second compound 1 µM; first compound 3.16 µM; hits give low values
OUTCOME_MEASURE: viability, T/C

Here's what some known entries look like.
COMPOUND	viability, T/C
CC(C)NCC(C(=O)N1CCN(c2ncnc3c2C(C)CC3O)CC1)c1ccc(Cl)cc1 (configuration not stated) + C#Cc1c(F)ccc2cc(O)cc(-c3ncc4c(N5CC6CCC(C5)N6)nc(OCC56CCCN5CC(F)C6)nc4c3F)c12	93.5%
C[C@@H](NC(=O)c1ncnc(N)c1Cl)c1ncc(C(=O)Nc2cc(C(F)(F)F)c(Cl)cn2)s1 + C#Cc1c(F)ccc2cc(O)cc(-c3ncc4c(N5CC6CCC(C5)N6)nc(OCC56CCCN5CC(F)C6)nc4c3F)c12	108%

Need viability, T/C for each of these compounds.
1. NC1c2ccccc2OC12CCN(c1cnc3c(N4CCCc5ncccc54)n[nH]c3n1)CC2 (configuration not stated) + C=CC(=O)N1CCN(c2nc(OCC3CCCN3C)nc3c(F)c(-c4nc(N)cc(C)c4C(F)(F)F)c(Cl)cc23)C(C)C1
2. CCC(CC)c1cc(NC2CCC(N)C2)n2nccc2n1 (configuration not stated) + C=CC(=O)N1CCN(c2nc(OCC3CCCN3C)nc3c(F)c(-c4nc(N)cc(C)c4C(F)(F)F)c(Cl)cc23)C(C)C1
3. CC(Nc1ccc2c(c1)OCCn1cc(N3C(=O)OCC3C(F)F)nc1-2)C(N)=O (configuration not stated) + C=CC(=O)N1CCN(c2nc(OCC3CCCN3C)nc3c(F)c(-c4nc(N)cc(C)c4C(F)(F)F)c(Cl)cc23)C(C)C1
4. NC1c2ccccc2OC12CCN(c1cnc3c(N4CCCc5ncccc54)n[nH]c3n1)CC2 (configuration not stated) + C#Cc1c(F)ccc2cc(O)cc(-c3ncc4c(N5CC6CCC(C5)N6)nc(OCC56CCCN5CC(F)C6)nc4c3F)c12
5. CC(Nc1ccc2c(c1)OCCn1cc(N3C(=O)OCC3C(F)F)nc1-2)C(N)=O (configuration not stated) + C#Cc1c(F)ccc2cc(O)cc(-c3ncc4c(N5CC6CCC(C5)N6)nc(OCC56CCCN5CC(F)C6)nc4c3F)c12

Reply:
["34.4%", "30.7%", "75.3%", "27.7%", "69.2%"]
